systemUnderTest: UniProtKB Q96Q83
experimentDescription: Inhibition of human ALKBH3 using ss-m1A DNA as substrate by HPLC analysis
compounds and their reported IC50
State the answer as a number, implicitly in mM.

O=C(O)CC[C@@H](O)C(=O)O: 8.3

Then there is this compound:
Input: If you can, please state the reported IC50 value of `O=C(O)CC[C@H](O)C(=O)O` .
Output: 24.3

====

systemUnderTest: Egl nine homolog 1 (Homo sapiens, UniProt Q9GZT9)
Sequence (Q9GZT9 whole entry): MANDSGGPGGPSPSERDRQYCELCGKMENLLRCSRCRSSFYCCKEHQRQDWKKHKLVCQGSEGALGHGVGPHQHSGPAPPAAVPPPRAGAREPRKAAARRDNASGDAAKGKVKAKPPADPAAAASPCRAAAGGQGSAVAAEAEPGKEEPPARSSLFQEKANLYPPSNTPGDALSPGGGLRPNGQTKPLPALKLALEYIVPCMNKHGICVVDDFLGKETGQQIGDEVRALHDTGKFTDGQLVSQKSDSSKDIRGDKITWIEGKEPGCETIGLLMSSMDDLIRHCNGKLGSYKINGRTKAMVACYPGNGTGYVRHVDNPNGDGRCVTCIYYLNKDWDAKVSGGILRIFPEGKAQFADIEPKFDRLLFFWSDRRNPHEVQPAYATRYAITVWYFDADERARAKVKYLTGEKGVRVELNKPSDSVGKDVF
experimentDescription: Inhibition of human PHD2 expressed in H5 insect cells
// values below are reported IC50

O=C(O)CC(O)(CC(=O)O)C(=O)O [CITRIC ACID]: 4.8 mM

Input: Look up IC50 for this compound: O=C(O)CC(O)C(=O)O (stereo not drawn) [MALIC ACID]
Output: > 10 mM

Input: Field request: IC50 | item: O=C(O)/C=C/C(=O)O [FUMARIC ACID]
Output: 0.08 mM

====

systemUnderTest: Alpha-ketoglutarate-dependent dioxygenase alkB homolog 3 (Homo sapiens, UniProt Q96Q83)
Sequence (Q96Q83 whole entry): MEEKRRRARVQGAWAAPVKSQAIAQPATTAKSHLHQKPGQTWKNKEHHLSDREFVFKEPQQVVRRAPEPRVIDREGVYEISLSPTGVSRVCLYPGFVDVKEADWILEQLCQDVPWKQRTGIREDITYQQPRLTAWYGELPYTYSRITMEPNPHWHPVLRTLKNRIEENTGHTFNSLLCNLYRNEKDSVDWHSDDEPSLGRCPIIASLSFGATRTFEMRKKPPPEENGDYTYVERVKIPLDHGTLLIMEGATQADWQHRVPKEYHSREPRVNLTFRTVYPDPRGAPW
experimentDescription: Inhibition of human ALKBH3 by HPLC analysis
assayReadout: IC50 (µM)
The reply should contain only the number, in µM.

Input: Using the record for `O=C(O)c1cc(O)c2c(c1)C(=O)c1cccc(O)c1C2=O` , report its IC50.
Output: 5.3

====

systemUnderTest: Alpha-ketoglutarate-dependent dioxygenase alkB homolog 3 (Homo sapiens)
experimentDescription: Inhibition of human ALKBH3 expressed in Escherichia coli BL21 (DE3) Rosetta cells
We begin with a simple list: items and their reported pIC50.
Lab note: report pIC50 as minus log10 of the concentration in molar units, number only.

O=C(O)c1ccnc(C(=O)NS(=O)(=O)c2ccccc2C(F)(F)F)c1: 4.65

Note: attention shifts to another entry.
Input: # get_value(readout= pIC50, system= Alpha-ketoglutarate-dependent dioxygenase alkB homolog 3 (Homo sapiens)) for `Cc1ccccc1S(=O)(=O)NC(=O)c1cc(C(=O)O)ccn1`
Output: 5.43

====

systemUnderTest: Alpha-ketoglutarate-dependent dioxygenase FTO (Homo sapiens, UniProt Q9C0B1)
Sequence (Q9C0B1 whole entry): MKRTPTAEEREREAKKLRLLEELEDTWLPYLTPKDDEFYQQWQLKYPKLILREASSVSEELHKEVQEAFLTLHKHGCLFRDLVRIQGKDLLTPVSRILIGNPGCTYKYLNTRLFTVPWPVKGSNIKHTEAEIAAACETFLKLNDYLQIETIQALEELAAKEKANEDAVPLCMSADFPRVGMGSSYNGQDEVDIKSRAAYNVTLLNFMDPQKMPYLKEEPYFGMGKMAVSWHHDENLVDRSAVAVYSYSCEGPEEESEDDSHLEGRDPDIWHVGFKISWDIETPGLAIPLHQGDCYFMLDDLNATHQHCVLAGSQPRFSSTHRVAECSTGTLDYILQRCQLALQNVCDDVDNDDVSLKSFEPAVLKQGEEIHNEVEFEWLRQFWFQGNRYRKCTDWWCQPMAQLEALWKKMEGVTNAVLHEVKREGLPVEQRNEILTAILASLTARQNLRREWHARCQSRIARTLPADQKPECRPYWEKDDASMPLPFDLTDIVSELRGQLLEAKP
experimentDescription: Inhibition of FTO (unknown origin) demethylation activity
assayReadout: IC50 (µM)
Response body: numeric value in µM, unit text excluded.

Input: What value of IC50 has been reported for the following compound? `CCN(CC)C(=O)/C(C#N)=C/c1cc(O)c(O)c([N+](=O)[O-])c1`
Output: 3.5

====

systemUnderTest: Alpha-ketoglutarate-dependent dioxygenase AlkB (Escherichia coli (strain K12), UniProt P05050)
Sequence (P05050 whole entry): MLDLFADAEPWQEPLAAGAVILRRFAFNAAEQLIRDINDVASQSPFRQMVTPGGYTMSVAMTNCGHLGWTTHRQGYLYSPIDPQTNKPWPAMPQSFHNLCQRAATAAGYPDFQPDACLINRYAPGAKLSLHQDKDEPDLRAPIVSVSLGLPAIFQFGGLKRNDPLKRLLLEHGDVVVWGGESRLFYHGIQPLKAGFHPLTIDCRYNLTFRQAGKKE
experimentDescription: Inhibition of Escherichia coli AlkB by HPLC analysis
assayReadout: IC50 (µM)
Report as a plain number; the unit µM is understood.

Input: Can you look up the measured IC50 of `O=C(O)c1cc(O)c2c(c1)C(=O)c1cccc(O)c1C2=O` for me?
Output: 12.7

====

systemUnderTest: Alpha-ketoglutarate-dependent dioxygenase FTO (Homo sapiens)
experimentDescription: Displacement of ssDNA with ATTGTCA (m6A) CAGCAGA-FAM from human FTO measured after 30 mins by fluorescence polarization assay
assayReadout: IC50 (µM)
Write the answer as a number in µM, unit excluded.

Nc1c(S(=O)(=O)O)cc(Br)c2c1C(=O)c1ccccc1C2=O [BROMAMINIC ACID]: 68

We next turn to a different compound, shown below.
Input: // IC50 lookup, key: `Nc1c(S(=O)(=O)O)cc(Br)c2c1C(=O)c1ccc(S(=O)(=O)O)cc1C2=O`
Output: 64
